Task for the reader: assign each of the following compounds its reported pEC50.
system: Leishmania donovani axenic amastigote parasites; test: Leishmania donovani axenic amastigote proliferation assay; type: cell-based; conditions: axenic amastigotes in vitro, read-out: L. donovani amastigotes EC50
Please note pEC50 is a logarithmic value: minus log10 of concentration in mol/L. Answer with that number alone.

[in] I have this compound here, CN1CCOc2cc(-c3cnc4nc(-c5cc(NC(=O)c6ccco6)ccc5Cl)[nH]c4c3)ccc21 [Compound 72] , and I need its recorded pEC50.
[out] 6.17

[in] # lookup: pEC50 of Cc1cnc2nc(-c3cc(NC(=O)c4cocn4)ccc3Cl)[nH]c2c1 [Compound 113]
[out] 4.82

[in] Name the reported pEC50 value associated with the compound O=C(Nc1ccc(Cl)c(-c2nc3ncc(-c4ccc(OCCN5CCCC5)cc4)cc3[nH]2)c1)c1ccco1 [Compound 55]
[out] 5.69

[in] Consider the compound shown here: COCCOC(=O)Nc1ccc(Cl)c(-c2nc3ncc(-c4ccc5c(c4)CC(=O)N5)cc3[nH]2)c1 [Compound 379] What is its recorded pEC50?
[out] 5.83

[in] # lookup: pEC50 of Cc1cnc2nc(-c3cc(NC(=O)c4oc(C)nc4C)ccc3Cl)[nH]c2c1 [Compound 139]
[out] 5.97

###

test system: L. donovani HU3 strain in mouse peritoneal macrophages; assay: Assay for proliferation of Leishmania parasites in mouse peritoneal macrophages; format: cell-based, Leishmania donovani; conditions: Leishmania donovani, Peritoneal macrophage, read-out: L. donavani Macrophage EC50
pEC50: −log10 of the molar value.
Assay endpoint: pEC50

[in] So what's the measured pEC50 for this one? Cc1cnc2nc(-c3cc(NC(=O)c4ccnc(C)c4C)ccc3Cl)[nH]c2c1
[out] < 4.54

[in] Looking for the measured pEC50 of Cc1cnc2nc(-c3cc(NC(=O)CCC(=O)O)ccc3Cl)[nH]c2c1 , can you help?
[out] < 4.30

[in] Sample CCc1noc(C(=O)Nc2ccc(F)c(-c3nc4ncc(Br)cc4o3)c2)n1 — what was its pEC50?
[out] < 4.30

[in] GET /values?readout=pEC50&item= Cc1cnc2nc(-c3cc(NC(=O)C4CCCCO4)ccc3Cl)[nH]c2c1 (stereo not shown)
[out] < 4.30

###

test system: L. donovani HU3 strain in mouse peritoneal macrophages; assay: Assay for proliferation of Leishmania parasites in mouse peritoneal macrophages; assay type: cell-based, Leishmania donovani; details: Leishmania donovani, Peritoneal macrophage, read-out: L. donavani Macrophage EC50
Assay endpoint: EC50

[in] Can you share its EC50? I mean this compound: Cc1cnc2nc(-c3cc(NC(=O)c4nnc(C)o4)ccc3Cl)[nH]c2c1
[out] > 50 µM

[in] Endpoint output: EC50 of Cc1cnc2nc(-c3cc(NC(=O)c4ccc(OC(F)(F)F)cc4)ccc3Cl)[nH]c2c1 . Value?
[out] > 37.7 µM

[in] Could you tell me which EC50 is on file for Cc1cnc2nc(-c3cc(Nc4ccc(C#N)cn4)ccc3Cl)[nH]c2c1 ?
[out] > 30.1 µM

[in] Would you mind telling me what EC50 value was observed for Cc1cnc2nc(-c3cc(NC(=O)C4(C)CNC4)ccc3Cl)[nH]c2c1 ?
[out] > 50 µM

[in] Suppose we examine the compound Cc1cnc2nc(-c3cc(NCc4ccco4)ccc3Cl)[nH]c2c1 ; what EC50 value has been reported?
[out] > 40.5 µM

[in] Consider the compound Cc1cnc2nc(-c3cc(NC(=O)c4ccc(C(F)(F)F)nc4C)ccc3Cl)[nH]c2c1 and give its measured EC50.
[out] > 50 µM

[in] What value of measured EC50 is listed for Cc1cnc2nc(-c3cc(NC(=O)c4cscn4)ccc3Cl)[nH]c2c1 ?
[out] > 46.3 µM
